Data origin, for the record: patent US20060276464A1

Target chain: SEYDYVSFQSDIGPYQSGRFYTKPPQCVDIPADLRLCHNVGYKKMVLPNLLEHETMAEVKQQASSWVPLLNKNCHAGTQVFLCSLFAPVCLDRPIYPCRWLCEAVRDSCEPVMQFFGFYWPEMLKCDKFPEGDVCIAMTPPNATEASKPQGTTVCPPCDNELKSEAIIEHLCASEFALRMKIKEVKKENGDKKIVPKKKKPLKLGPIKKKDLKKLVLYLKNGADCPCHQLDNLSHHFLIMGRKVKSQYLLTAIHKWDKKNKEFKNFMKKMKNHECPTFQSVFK
pIC50: −log10 of the molar value.

# sample-smiles, pIC50
records = [
    ("CNc1ccc(S(=O)(=O)c2ccc(C(C)C)c(S(=O)(=O)NC3CCOCC3)c2)cc1", 6.22),
    ("CC(C)(C)OC(=O)N1CCC(NC(=O)NCCNS(=O)(=O)c2cc(S(=O)(=O)c3ccccc3)ccc2C(F)(F)F)CC1", 6.10),
    ("CN(CCNS(=O)(=O)c1cc(S(=O)(=O)c2ccccc2)ccc1C(F)(F)F)C(=O)N[C@@H]1CCN(C(=O)OC(C)(C)C)C1", 6.89),
    ("O=C(N1CCC(NS(=O)(=O)c2cc(S(=O)(=O)c3ccccc3)ccc2Cl)CC1)C(F)(F)F", 5.85),
    ("O=S(=O)(NC[C@@H](O)c1ccccc1)c1cc(S(=O)(=O)c2ccccc2)ccc1C(F)(F)F", 7.22),
    ("CC(C)(C)OC(=O)N1CCC[C@H](NS(=O)(=O)c2cc(S(=O)(=O)c3ccccc3)ccc2C(F)(F)F)C1", 5.36),
    ("Cc1ccc(S(=O)(=O)c2cccc(Cl)c2Cl)cc1S(=O)(=O)NCCCn1ccnc1", 5.70),
]
